B1: TPR 5TU (parent)
chain: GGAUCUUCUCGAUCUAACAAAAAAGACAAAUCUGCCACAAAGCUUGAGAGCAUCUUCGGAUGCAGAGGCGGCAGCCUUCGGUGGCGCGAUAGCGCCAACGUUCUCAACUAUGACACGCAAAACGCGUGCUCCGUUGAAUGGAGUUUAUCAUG

Variants of: B1
EXPERIMENT SUMMARY: polymerase ribozyme fitness, log enrichment relative to wild type (log ratio); higher = more active; in vitro selection for triplet polymerase activity
Variants at the floor of the assay were thinned out.
RECORDED METRIC: polymerase ribozyme fitness (log ratio)

Read off the recorded polymerase ribozyme fitness (log ratio) for G50C C75U C93G A115G ≤ -4.2

Note polymerase ribozyme fitness (log ratio) for the variant shown: A20U G48A G84A G152C ≤ -4.2

Tell me polymerase ribozyme fitness (log ratio) reported for U33A U44A G46U G59A C93G C103U U104A U135A C149G ≤ -4.2

Tell me its polymerase ribozyme fitness (log ratio) given A52C C57U G133U as the entry. ≤ -4.2

Report measured polymerase ribozyme fitness (log ratio); entry is C87G C105G ≤ -4.2

Assign polymerase ribozyme fitness (log ratio) to the following record: A23U G58C G88U G136A ≤ -4.2

Report measured polymerase ribozyme fitness (log ratio); entry is C36G G86A G117U U130A G140A ≤ -4.2

State its polymerase ribozyme fitness (log ratio) for this variant: C5G C35U G80U C95U U104A ≤ -4.2

Report polymerase ribozyme fitness (log ratio), nothing else, for this variant: A40U C99U G117C -0.515

Specify measured polymerase ribozyme fitness (log ratio) for U56A U78G G92A U144A . ≤ -4.2

Identify measured polymerase ribozyme fitness (log ratio) associated with U56A G88C -4.12

Consider the variant C96G U144C and give its recorded polymerase ribozyme fitness (log ratio). -0.123

Give polymerase ribozyme fitness (log ratio) for G58U G68A C95U -4.01

Report polymerase ribozyme fitness (log ratio) for A40G A52G A91C A119U G128A ≤ -4.2

Quote polymerase ribozyme fitness (log ratio) reported for A23U U55A G128U please. ≤ -4.2
